MEASUREMENT DESCRIPTION: label from the status in PepcDB records

{"columns": ["RECORD SEQUENCE", "protein production"],
 "data": [
  ["MPQGKWFRFGYGIVLVLLIIYLGSLVDWIFRPIVVFVQTLFAPVIIAGILYYLFRPIVGLLSKKMNRGLSILILFLMIIGAFTAFSLIVGPELQRQFQSLYNNLPTLINQVRDTFIALQSNELFNRFQESETFQPEEMISRFVNSLNDIIGTIGANITGFIGALANFFIILVLVPFILFYLLKEGEKLPVQLLKLFNKKQQHEGRLILADMDKMLSSYIQGQIIVSFCVGILCYIAYLIIGLDYALILALVAMFTNVIPFVGPWIGTFPAVIVAFIDSPLTALIVVIVVVVIQQIESNLISPQVMGKKLAIHPITIIFILLVAGRFAGVVGMLLAVPTYAVGKVIVTHSYRLWKLRKQPVE", "failed"],
  ["MKVLTVVIPCYNSAEYMDRAIESLLIGDEELEILIVNDGSMDNTSIIADEYEKKYPNTIRVIHKENGGHGDAINTGLKHSKGVYFKVLDSDDWFDKASLKKVLEVLKNMIKDSKSLDMLISNYVYENFSINKSRSINYKGAMPKEKIFTWDSLGHLKSSQNILMHSVIYRTELLRECNLDLPKHTFYVDNIFVYKPLPYVKTMYYLDVDLYRYFIGREDQSVNEKVMIKRIDQQIKVTKILIDCYNPMLLNCKKLRKYMVKYLVMMMTVSTVLLIKDNTEQSLNKKRELWSYLHSKNRKLYFEVNKSFLGLLIQIKGFVGRKIILLGYSLSRKVFGFNLEHHHHHH", "failed"]
]}

* * *

MEASUREMENT DESCRIPTION: label from the status in PepcDB records
ATTRIBUTE MEASURED: protein production

{"columns": ["RECORD SEQUENCE", "protein production"],
 "data": [
  ["MKRLADVKISTLDLVPVRHDKGPAESLRNSLSLAQHVEKLGYNRFWVAEHHNMDGIASSATSVLLAYLAGGTSTIRVGAGGIMLPNHAPLVVAEQFGTLASLYPDRIDLGLGRAPGSDQMTARALRRERSGSAEDFPDDVTELMEYLGPRTPDQKVIAVPGSGTNVPIWLLGSSLFSAQLAGMRGLPYAFASHFAPRYMHEAIRVYRNHFQPSAVLDKPYVMLGVPLSAADTDEQAEYLATSVYQRILALMRGHSLMQRPPVDSMDGLWLPHEREAVASFLGLAMVGGPEKIRAKLDVLLEQTDADELIFTCDMYEHEDRLRSYEILAQ", "failed"],
  ["MDERRAVVLVDELHLRKGGYEAEKVRVFAVRVSETLWAFKALWGSTPFTGTTFV", "failed"],
  ["MNAENNQTTTTHSKVISHVFCTGTAKLGSVGPPIGLVDIGVSEVAYIFRVSLPGIEKNQDKIKCEIQREGRVCIQGVIPEIAIPSDTGCLYRMQVQQLCPPGPFSITFNLPGQVDPRLFSPNFRSDGIFEVVVVKLGVRIPTS", "failed"],
  ["MDKYPFLREAGSSFKDRDVTKMSDLIATWDGQDIKGPALIGVPLSKSSISHSGASFAPGTIRQALKHSSAYSAELGEHVVSELLYDLGDIDIHVTDIVKSHHHIFQTMHALLSDHPDWVPLILGGDNSISYSTIKAIAQTKGTTAVIQFDAHHDVRNTEDGGPTNGTPFRRLLDEEIIEGQHLIQLGIREFSNSQAYEAYAKKHNVNIHTMDMIREKGLIPTIKEILPVVQDKTDFIFISVDMDVLDQSHAPGCPAIGPGGLYTDELLEAVKYIAQQPNVAGIEIVEVDPTLDFRDMTSRAAAHVLLHALKGMKLSPFK", "not failed"],
  ["MSNDLINGSILHCLETASLGMPLEVWKTRMCVYRNENTIKSFKNIYNKGLGQFYAGFYAKLIESGSKGAVLLLSKEQIIKVCNDMNINKTTSGFIGGACGGICQSLVMTPCTFFITASIDKKINYKEKLIHIFKNTGITTLYKGNTAMCLRQGTNWASRQGITEWIRNIVMERKKNRKNKNDDINNVKGMIFSGNDITTDKIKHNNNNNNNNNTSQSKSLELTTSEELFCGIVGGALSVWNNPFDVVRVYMQNNANKNIKLTFFQSFIHLYKEGGILYLYKGVIPRCFLCIWQTLFMVTGIKILNKYF", "failed"]
]}

List protein production for every entry below, keeping the order given.
1. MRERRFTSDAAHELRSPLTALKVQTEVAQLSDDDPQARKKALLQLHSGIDRATRLVDQLLTLSRLDSLDNLQDVAEIPLEDLLQSSVMDIYHTAQQAKIDVRLTLNAHSIKRTGQPLLLSLLVRNLLDNAVRYSPQGSVVDVTLNADNFIVRDNGPGVTPEALARIGERFYRPPGQTATGSGLGLSIVQRIAKLHGMNVEFGNAEQGGFEAKVSW
2. MQHSTLEPSTSLDVPSCIPRVSRYPRVKDVIARKYRLVVKTIGYIGWSLFWLLIWDVLVTIDFMLFLNSKFTLPLIPLTLLGSALVVLVSFRNSSAYSRWWEARTLWGALVNSSRSFARQTLTLIDDPDDGLNPVKATLLRRHIAYVNCLAAHLKGESCPEELMAFIPPAEFERRNRSNNFANDILGGSAALLAREYQAGRLDSIRLARLESTLVDLSNAQGGMERIANTPLPYPYVYFPRLFITLFCLIVPVGLVESLGWFTPLASTVVGFMLLAIERIGTDLQSPFRFSEHQIQMDTICETIERNLESMQREAQCAEAVDA
3. MSTPAPEQMLSAWQVGIAALLILVNGALSIGLGLGLERRLAWAAVRTVVQLLLIGFVLQWVFASAHWAVVLAVIALMTLIAGHATGSRGARDYAGLRLDGTLSVFGSTWLIGAIGLVAVLQARPWYTPQYAIPIMGMILGNTLTGVGLALERMTGELIATRDQVETLLALGGTRWEAARNAARAAVRAGMTPIINQMSVVGVVSLPGMMTGQVLAGQSPLEAVRYQIVIMFLLAASSGLGTVAAVLLAYRRLFSREHQLLSARIVQRAPGVH
4. MQIYQLSGRNVEVTEPMREYVEEKLSRLDRYTDQITDARVTLTVRDVRNNERRNRVEVQLNVPGGIIRAEEHHADMYAAIDKASDVLERQLRKFKTRYMKQRQEGRPEPLPGPAEAEVNAQGSGAAMDDVSEFHPEIVRQKRFELRPMSAEDAVVQMEALGHDFYVFQDLQGQTGVVYRRRDGHYGLIGSS
5. MANKTKSKSLLEKMWRIKWWLLSIFTVLFLLFALFFPLNNYYVELPGGAFDTKEVLTVNKKADDSKGSYNFVAVAQTKATLALMLYTQFNDFAKLQTAEEATGNYSDEDFMRINQFYMETSQNQAVYQGLTLAGKEVSLEYMGVYVLQVADDSSFKGVLNIADTVTAVNGKTFDNSTDMIKYVQGLKLGSKVKVTYMRDGKEKTATGKIIKIANGKNGIGIGLTDHTEIKSPENVKFKLDGVGGPSAGLMFTLAIYDQVSGQDLKAGRKIAGTGTIEKDGAVGDIGGAYLKVKSAADSGADIFFVPNNLVTKEMKKADPDAKTNYQEAKEAAEKLGTKMKIVPVKTAQEAIDYLKKTK
6. MINKPNQFVNHLSALKKHFASYKELREAFNDYHKHNGDELTTFFLHQFDKVMELVKQKDFKTAQSRCEEELAAPYLPKPLVSFFQSLLQLVNHDLLEQQNAALASLPAAKIIELVLQDYPNKLNMIHYLLPKTKAFVKPHLLQRLQFVLTDSELLELKRFSFFQALNQIPGFQGEQVEYFNSKLKQKFTLTLGEFEIAQQPDAKAYFEQLITQIQQLFLKEPVNAEFANEIIDAFLVSYFPLHPPVPLAQLAAKIYEYVSQIVLNEAVNLKDELIKLIVHTLYEQLDRPVGDEN

Output:
["not failed", "failed", "failed", "failed", "failed", "not failed"]
